- testSystem: CRTH2 (Homo sapiens)
- Construct: expressed in transfected cells; host or cells: Chinese Hamster Ovary (CHO) cells, G418-selected (CHO/CRTH2)
- Sequence (Q9Y5Y4 1-395): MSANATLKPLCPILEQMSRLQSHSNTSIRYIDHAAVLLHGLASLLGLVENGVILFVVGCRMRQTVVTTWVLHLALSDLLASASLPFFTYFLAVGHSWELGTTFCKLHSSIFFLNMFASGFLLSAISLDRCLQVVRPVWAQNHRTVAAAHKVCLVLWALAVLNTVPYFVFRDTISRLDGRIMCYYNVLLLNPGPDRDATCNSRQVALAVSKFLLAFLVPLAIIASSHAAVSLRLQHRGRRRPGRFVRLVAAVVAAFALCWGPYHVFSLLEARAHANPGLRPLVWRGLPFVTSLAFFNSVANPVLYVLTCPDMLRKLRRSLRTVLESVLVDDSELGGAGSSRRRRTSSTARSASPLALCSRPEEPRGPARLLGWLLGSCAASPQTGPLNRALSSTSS
- experimentNotes: Calcium mobilisation assay in CHO/CRTH2 cells (PGD2-induced calcium flux)
- Format: cell-based
- settings: read-out: IC50, inhibition of PGD2-induced calcium flux
readoutKind: IC50 (nM)
Report the value in nM with no unit label.

{"molecule": "Cc1c(Cc2ccc3cc(F)ccc3n2)c2cc(F)ccc2n1CC(=O)O", "IC50 [nM]": 10}
{"molecule": "Cc1c(Cc2ccc(S(C)(=O)=O)cc2)c2cc(F)ccc2n1CC(=O)O", "IC50 [nM]": 64}
{"molecule": "O=C(O)Cn1cc(Cc2nc3c(F)c(F)cc(F)c3s2)c2ccccc21 [Compound 20, reference compound]", "IC50 [nM]": 885}

Here is another molecule to look at.
Entry Cc1c(C(C)c2nc3ccccc3s2)c2cc(F)ccc2n1CC(=O)O (racemic) — recorded IC50 = 34
